Recorded values, source the C3SDB collision cross section collection.

# CONDITION DESCRIPTION: [M+Na]+; instrument: DT; stepped-field
The entries below are paired with their reported collision cross section (N2).
Form entry: value (Å²) — number only.

SMILES REPR: CCCCCCCCC/C=C\CCCCCCCC(=O)O[C@H](COC(=O)CCCCCCCCCCCCCCCCC)COP(=O)(O)OCCN
UNIT ANNOTATION: Å²
collision cross section (N2): 292.2

SMILES REPR: CCC=CCC=CCC=CCC=CCC=CCC=CCC=CCC(=O)OC[C@H](COP(=O)(O)OC[C@H](N)C(=O)O)OC(=O)CC=CCC=CCC=CCC=CCC=CCC=CCC=CCC
UNIT ANNOTATION: Å²
collision cross section (N2): 312

Could you now consider this next compound?
Read the entry CCCCCCCCCCCCC=CC[C@@H](O)[C@H](COP(=O)([O-])OCC[N+](C)(C)C)NC(=O)CCCCCCCCCCCCCCCCC and write its reported collision cross section (N2).
292.4
